Catalogue of melting point readings, one per entry.

The following compounds have reported results that may help.
>>> print(df.to_string())
                                   compound  measured_endpoint  endpoint_result
0  CN1CC(=O)N2[C@H](c3ccc4c(c3)OCO4)c3[nH]c4ccc(O)cc4c3C[C@@H]2C1=O (racemic) [Example 1]      melting point    322 to 328 °C
1  CN1CC(=O)N2[C@H](c3ccc4c(c3)OCO4)c3[nH]c4c(OCc5ccccc5)cccc4c3C[C@@H]2C1=O (racemic) [Example 8]      melting point    150 to 161 °C
2  CN1CC(=O)N2[C@H](c3ccc4c(c3)OCO4)c3[nH]c4cc(C#N)ccc4c3C[C@@H]2C1=O (racemic) [Example 7]      melting point    329 to 331 °C
3  COc1ccc2c3c([nH]c2c1)[C@@H](c1ccc2c(c1)OCO2)N1C(=O)CN(C)C(=O)[C@H]1C3 [Example 3]      melting point    288 to 293 °C
4  COc1ccc2[nH]c3c(c2c1)C[C@@H]1C(=O)N(C)CC(=O)N1[C@@H]3c1ccc2c(c1)OCO2 (racemic) [Example 2]      melting point    259 to 261 °C

Indicate the recorded melting point value for this compound: CN1CC(=O)N2[C@H](c3ccc4c(c3)OCO4)c3[nH]c4cc(C(=O)O)ccc4c3C[C@H]2C1=O (racemic) [Example 6] 246 to 252 °C

Dear colleague, please send me the reported melting point for CN1CC(=O)N2[C@H](c3ccc4c(c3)OCO4)c3[nH]c4cc(-c5ccccc5)ccc4c3C[C@@H]2C1=O (racemic) [Example 4] when you can. 198 to 208 °C

Look up and state reported melting point for COC(=O)c1ccc2c3c([nH]c2c1)[C@@H](c1ccc2c(c1)OCO2)N1C(=O)CN(C)C(=O)[C@H]1C3 (racemic) [Example 5] 294 to 295 °C

* * *

system: human recombinant-PDE5 (Homo sapiens, UniProt O76074)
assay.method.text: Inhibitory effect on cGMP-PDE (PDE5 IC50, one-step assay)
Type: biochemical
measurement.parameters: in vitro, 0.15 μM 8-[H3]-cGMP, 30 min incubation
measured.endpoint: IC50 (nM)

>>> print(df.to_string())
                                   compound                                    system  measured_endpoint  scale_unit  endpoint_result
0  COc1ccc2c3c([nH]c2c1)[C@@H](c1ccc2c(c1)OCO2)N1C(=O)CN(C)C(=O)[C@H]1C3 [Example 3]  human recombinant-PDE5 (Homo sapiens, UniProt O76074)               IC50          nM              1.2
1  CN1CC(=O)N2[C@H](c3ccc4c(c3)OCO4)c3[nH]c4cc(C#N)ccc4c3C[C@@H]2C1=O (racemic) [Example 7]  human recombinant-PDE5 (Homo sapiens, UniProt O76074)               IC50          nM                7

(P) CN1CC(=O)N2[C@H](c3ccc4c(c3)OCO4)c3[nH]c4cc(-c5ccccc5)ccc4c3C[C@@H]2C1=O (racemic) [Example 4]
(Q) CN1CC(=O)N2[C@H](c3ccc4c(c3)OCO4)c3[nH]c4c(OCc5ccccc5)cccc4c3C[C@@H]2C1=O (racemic) [Example 8]
IC50 comparison. Which is larger, P or Q ? Mark your selection by writing its label. Q
(Q: 37 nM, P: 6 nM)
